These entries and their values trace back to patent EP1090020B1.

assay-target: human adenosine receptor (adenosine 2a) (Homo sapiens, UniProt P29274)
Sequence (P29274 whole entry): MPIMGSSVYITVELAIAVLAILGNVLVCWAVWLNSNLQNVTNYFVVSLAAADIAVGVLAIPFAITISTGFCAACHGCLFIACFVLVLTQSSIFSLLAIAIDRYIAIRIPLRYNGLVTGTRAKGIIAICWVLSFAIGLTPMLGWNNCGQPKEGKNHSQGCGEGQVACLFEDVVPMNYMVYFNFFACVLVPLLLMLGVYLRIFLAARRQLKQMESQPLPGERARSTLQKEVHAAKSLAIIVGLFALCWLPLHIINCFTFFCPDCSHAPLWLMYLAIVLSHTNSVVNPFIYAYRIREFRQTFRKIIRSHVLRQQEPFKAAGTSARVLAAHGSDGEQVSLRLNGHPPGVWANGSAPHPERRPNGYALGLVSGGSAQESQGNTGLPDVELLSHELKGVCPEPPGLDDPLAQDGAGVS
measurement-description: Agonist activity against adenosine 2a receptor subtype (CHO cells, cAMP response element/SPAP reporter)
Format: cell-based
measurement-setup: transfected CHO cells; effect on basal levels of cAMP reflected by SPAP; ratio to NECA
Please respond with reported A2a; EC50 values as a ratio of that of NECA for every item in the list.
Numbers only.

O=CO.O[C@@H]1[C@H](O)[C@@H](c2nnc[nH]2)O[C@H]1n1cnc2c(NCC(c3ccccc3)c3ccccc3)nc(NC3CCCC3)nc21 [Example 6]    16.96
CC(C)[C@@H](CO)Nc1nc(NCC(c2ccccc2)c2ccccc2)c2ncn([C@@H]3O[C@H](c4nnc[nH]4)[C@@H](O)[C@H]3O)c2n1.O=CO [Example 4]    3.79
O=CO.O[C@@H]1[C@H](O)[C@@H](c2nnc[nH]2)O[C@H]1n1cnc2c(NCC(c3ccccc3)c3ccccc3)nc(NCCc3ccccn3)nc21 [Example 5]    19.3

For each of the compounds below, state A2a; EC50 values as a ratio of that of NECA.
1. O=CO.O[C@@H]1[C@H](O)[C@@H](c2nnc[nH]2)O[C@H]1n1cnc2c(NCC(c3ccccc3)c3ccccc3)nc(N[C@@H]3CCNC3)nc21 [Example 3]
2. Cn1cnc(CCNc2nc(NCC(c3ccccc3)c3ccccc3)c3ncn([C@@H]4O[C@H](c5nnc[nH]5)[C@@H](O)[C@H]4O)c3n2)c1.O=CO [Example 2]
3. N=C(N)NCCNc1nc(NCC(c2ccccc2)c2ccccc2)c2ncn([C@@H]3O[C@H](c4nnc[nH]4)[C@@H](O)[C@H]3O)c2n1.O=CO [Example 7]
4. N[C@H]1CC[C@H](Nc2nc(NCC(c3ccccc3)c3ccccc3)c3ncn([C@@H]4O[C@H](c5nnc[nH]5)[C@@H](O)[C@H]4O)c3n2)CC1.O=CO [Example 1]
5. O=CO.OC[C@H](Cc1ccccc1)Nc1nc(NCC(c2ccccc2)c2ccccc2)c2ncn([C@@H]3O[C@H](c4nnc[nH]4)[C@@H](O)[C@H]3O)c2n1 [Example 8]

Marked response:
10.49
1.08
19.01
11.37
26.74

Exam item: Reported A2a; EC50 values as a ratio of that of NECA for O=CO.O[C@@H]1[C@H](O)[C@@H](c2nnc[nH]2)O[C@H]1n1cnc2c(NCC(c3ccccc3)c3ccccc3)nc(NCCN3CCCCC3)nc21 [Example 9] : what is it?
Marked response: 8.13

---

assay-target: human adenosine receptor (adenosine 3) (Homo sapiens)
Sequence (P0DMS8 whole entry): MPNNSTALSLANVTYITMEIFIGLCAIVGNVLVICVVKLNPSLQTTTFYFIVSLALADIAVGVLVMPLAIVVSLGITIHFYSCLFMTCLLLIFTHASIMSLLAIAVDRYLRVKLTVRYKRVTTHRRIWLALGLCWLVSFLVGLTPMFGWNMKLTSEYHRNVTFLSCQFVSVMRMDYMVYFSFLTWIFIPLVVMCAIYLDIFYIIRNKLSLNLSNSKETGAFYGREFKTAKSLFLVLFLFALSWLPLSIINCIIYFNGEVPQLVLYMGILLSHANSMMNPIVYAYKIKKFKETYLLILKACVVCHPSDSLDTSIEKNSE
measurement-description: Agonist activity against adenosine 3 receptor subtype (CHO cells, cAMP response element/SPAP reporter)
Assay type: cell-based
measurement-setup: transfected CHO cells; effect on forskolin-enhanced cAMP reflected by SPAP; ratio to NECA
Method: Compounds of the invention were tested for in vitro and in vivo biological activity in accordance with the following screens: • (1) Agonist activity against adenosine 2a, adenosine 1 and adenosine 3 receptor subtypes. Agonist selectivity of compounds against other human adenosine receptors was determined using Chinese hamster ovary (CHO) cells transfected with the gene for the relevant human adenosine receptor following a method based on that of Castanon and Spevak, 1994 . […]
assay-readout: A3; EC50 values as a ratio of that of NECA

O=CO.O[C@@H]1[C@H](O)[C@@H](c2nnc[nH]2)O[C@H]1n1cnc2c(NCC(c3ccccc3)c3ccccc3)nc(N[C@@H]3CCNC3)nc21    > 306

I have 4 molecules here; please give me A3; EC50 values as a ratio of that of NECA for each one.
1. O=CO.O[C@@H]1[C@H](O)[C@@H](c2nnc[nH]2)O[C@H]1n1cnc2c(NCC(c3ccccc3)c3ccccc3)nc(NC3CCCC3)nc21
2. N=C(N)NCCNc1nc(NCC(c2ccccc2)c2ccccc2)c2ncn([C@@H]3O[C@H](c4nnc[nH]4)[C@@H](O)[C@H]3O)c2n1.O=CO
3. O=CO.O[C@@H]1[C@H](O)[C@@H](c2nnc[nH]2)O[C@H]1n1cnc2c(NCC(c3ccccc3)c3ccccc3)nc(NCCc3ccccn3)nc21
4. O=CO.O[C@@H]1[C@H](O)[C@@H](c2nnc[nH]2)O[C@H]1n1cnc2c(NCC(c3ccccc3)c3ccccc3)nc(NCCN3CCCCC3)nc21

Marked response:
["> 305", "> 368", "> 397", "> 472"]

Exam item: What does the data say about its A3; EC50 values as a ratio of that of NECA? Entry: `Cn1cnc(CCNc2nc(NCC(c3ccccc3)c3ccccc3)c3ncn([C@@H]4O[C@H](c5nnc[nH]5)[C@@H](O)[C@H]4O)c3n2)c1.O=CO`
Marked response: > 430
